B1: LINE1-full (parent)
chain: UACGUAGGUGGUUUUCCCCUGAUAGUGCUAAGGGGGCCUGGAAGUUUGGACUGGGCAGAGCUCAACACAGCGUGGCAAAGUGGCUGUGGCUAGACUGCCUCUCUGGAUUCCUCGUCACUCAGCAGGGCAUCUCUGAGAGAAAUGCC

# Variants of: B1
# measurement description: self-cleavage, relative activity (ratio to wild type); higher = more cleavage; in vitro, sequencing; the parent is a self-cleaving ribozyme
endpoint label: self-cleavage
Write the number on its own, no unit after it.

Note to self: self-cleavage recorded for A42G U109C was 1.24

Note to self: self-cleavage recorded for G106U U112C was 0.82

Note to self: self-cleavage recorded for U104A C113U was 0.51

Note to self: self-cleavage recorded for A22G A30G was 0.86

Note to self: self-cleavage recorded for G4A A92G was 0

Note to self: self-cleavage recorded for U23C A78G was 1.25

Note to self: self-cleavage recorded for G44A A50U was 0.94

Note to self: self-cleavage recorded for U100C U104C was 2.14

Note to self: self-cleavage recorded for C18A A129G was 1.42

Note to self: self-cleavage recorded for G40A U143C was 1.26

Note to self: self-cleavage recorded for A22U G93A was 0.07

Note to self: self-cleavage recorded for G58A U104A was 0.03

Note to self: self-cleavage recorded for U14G A77G was 0.57

Note to self: self-cleavage recorded for U29C G55C was 0

Note to self: self-cleavage recorded for G44A A67G was 0.37

Note to self: self-cleavage recorded for U45C A79U was 1.92

Note to self: self-cleavage recorded for A43U U46A was 1.24

Note to self: self-cleavage recorded for G74A U134C was 1.1

Note to self: self-cleavage recorded for U81C C116U was 1.14

Note to self: self-cleavage recorded for U119A A141U was 1.29

Note to self: self-cleavage recorded for G93A A138G was 0.06

Note to self: self-cleavage recorded for U102C U132C was 1.75
